Target: human recombinant COX-2 (Homo sapiens, UniProt P35354)
Sequence (P35354 18-604): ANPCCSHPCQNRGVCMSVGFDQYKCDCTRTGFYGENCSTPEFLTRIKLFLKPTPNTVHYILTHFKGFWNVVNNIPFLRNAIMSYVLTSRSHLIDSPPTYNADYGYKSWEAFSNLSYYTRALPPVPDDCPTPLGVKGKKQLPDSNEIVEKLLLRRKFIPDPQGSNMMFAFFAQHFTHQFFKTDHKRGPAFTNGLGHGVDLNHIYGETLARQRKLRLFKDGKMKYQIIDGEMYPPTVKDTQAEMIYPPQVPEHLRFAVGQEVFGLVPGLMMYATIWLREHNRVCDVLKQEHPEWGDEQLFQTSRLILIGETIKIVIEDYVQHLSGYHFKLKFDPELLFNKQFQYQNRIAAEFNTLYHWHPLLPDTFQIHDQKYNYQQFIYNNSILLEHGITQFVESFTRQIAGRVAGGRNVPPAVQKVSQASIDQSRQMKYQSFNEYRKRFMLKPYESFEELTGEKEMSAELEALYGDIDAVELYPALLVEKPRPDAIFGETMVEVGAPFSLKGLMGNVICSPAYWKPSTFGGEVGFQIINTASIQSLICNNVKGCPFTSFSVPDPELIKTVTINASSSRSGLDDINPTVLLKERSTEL
Test: In vitro COX-2 enzymatic assay (Cayman kit 560131)
Conditions: COX-2 selectivity index: COX-1 IC50/COX-2 IC50
Would you mind labelling by SI COX-1/COX-2? At or over 100 is 1.0, under is 0.0.

# bool: SI COX-1/COX-2 of O=C(NCc1ccccc1)c1cc(/N=N/c2ccc(S(=O)(=O)Nc3nccs3)cc2)ccc1O [Compound 5f] >= 100
0.0

Determine whether this compound has SI COX-1/COX-2 no lower than 100: CCCCNC(=O)c1cc(/N=N/c2ccc(S(N)(=O)=O)cc2)ccc1O [Compound 5a]
0.0

Hi, just wondering whether O=C(c1cc(/N=N/c2ccc(S(=O)(=O)Nc3ncccn3)cc2)ccc1O)N1CCOCC1 [Compound 5n] shows SI COX-1/COX-2 of 100 or higher.
1.0

Is reported SI COX-1/COX-2 greater than or equal to 100 here: NS(=O)(=O)c1ccc(/N=N/c2ccc(O)c(C(=O)N3CCCCC3)c2)cc1 [Compound 5h]
0.0

For this compound, is measured SI COX-1/COX-2 100 or higher? Cc1ccnc(NS(=O)(=O)c2ccc(/N=N/c3ccc(O)c(C(=O)N4CCOCC4)c3)cc2)n1 [Compound 5o]
1.0

Exam item: decide whether the reported SI COX-1/COX-2 for NS(=O)(=O)c1ccc(/N=N/c2ccc(O)c(C(=O)N3CCOCC3)c2)cc1 [Compound 5l] is at least 100.
1.0

Please indicate if the recorded SI COX-1/COX-2 for CCCCNC(=O)c1cc(/N=N/c2ccc(S(=O)(=O)Nc3nccc(C)n3)cc2)ccc1O [Compound 5d] meets or exceeds 100.
1.0

====

Test system: Staphylococcus epidermidis (RCMB 0100183)
Test: Inhibition zone, agar cup diffusion
Conditions: RCMB0100183, 24 h, read-out: inhibition zones (IZ) S. epidermidis
Property name: zone of inhibition at 1000 µg/mL (mm)
Provide only the numeric value, understood in mm.

Look up and report measured zone of inhibition at 1000 µg/mL for this entry: O=C(c1cc(/N=N/c2ccc(S(=O)(=O)Nc3nccs3)cc2)ccc1O)N1CCCCC1 [Compound 5i]
30

Please give the documented zone of inhibition at 1000 µg/mL of CCCCNC(=O)c1cc(/N=N/c2ccc(S(N)(=O)=O)cc2)ccc1O [Compound 5a]
33

Give a short answer stating reported zone of inhibition at 1000 µg/mL for NS(=O)(=O)c1ccc(/N=N/c2ccc(O)c(C(=O)NCc3ccccc3)c2)cc1 [Compound 5e] .
35

====

System: Pseudomonas aeruginosa (RCMB 0100243)
Experiment: Inhibition zone, agar cup diffusion
Conditions: RCMB0100243, 24 h, read-out: inhibition zones (IZ) P.aeruginosa
Would you kindly list zone of inhibition at 1000 µg/mL for each of these compounds?
Write the answer as a number in mm, unit excluded.

For Pseudomonas aeruginosa (RCMB 0100243), give the measured zone of inhibition at 1000 µg/mL of the entry O=C(NCc1ccccc1)c1cc(/N=N/c2ccc(S(=O)(=O)Nc3ncccn3)cc2)ccc1O
14

Look up and report measured zone of inhibition at 1000 µg/mL (Pseudomonas aeruginosa (RCMB 0100243)) for the following compound: C[C@H]1COc2c(N3CCN(C)CC3)c(F)cc3c(=O)c(C(=O)O)cn1c23 [Levofloxacin, levofloxacin, reference compound]
8

Provide zone of inhibition at 1000 µg/mL, tested on Pseudomonas aeruginosa (RCMB 0100243), for NS(=O)(=O)c1ccc(/N=N/c2ccc(O)c(C(=O)N3CCOCC3)c2)cc1 .
14

Fetch value of zone of inhibition at 1000 µg/mL on Pseudomonas aeruginosa (RCMB 0100243) for CCCCNC(=O)c1cc(/N=N/c2ccc(S(N)(=O)=O)cc2)ccc1O .
14

State the measured zone of inhibition at 1000 µg/mL (Pseudomonas aeruginosa (RCMB 0100243)) of O=C(c1cc(N=Nc2ccc(S(=O)(=O)Nc3nccs3)cc2)ccc1O)N1CCOCC1
18

Write down measured zone of inhibition at 1000 µg/mL (Pseudomonas aeruginosa (RCMB 0100243)) for this compound. O=C(c1cc(/N=N/c2ccc(S(=O)(=O)Nc3ncccn3)cc2)ccc1O)N1CCOCC1
14

Report the value of zone of inhibition at 1000 µg/mL obtained on Pseudomonas aeruginosa (RCMB 0100243) for CCCCNC(=O)c1cc(/N=N/c2ccc(S(=O)(=O)Nc3nccs3)cc2)ccc1O .
16

Find zone of inhibition at 1000 µg/mL for O=C(c1cc(/N=N/c2ccc(S(=O)(=O)Nc3nccs3)cc2)ccc1O)N1CCCCC1 on Pseudomonas aeruginosa (RCMB 0100243) and write it down.
18

Specify zone of inhibition at 1000 µg/mL for Cc1ccnc(NS(=O)(=O)c2ccc(/N=N/c3ccc(O)c(C(=O)N4CCCCC4)c3)cc2)n1 , system Pseudomonas aeruginosa (RCMB 0100243).
14

Identify measured zone of inhibition at 1000 µg/mL obtained with Pseudomonas aeruginosa (RCMB 0100243) for O=C(c1cc(/N=N/c2ccc(S(=O)(=O)Nc3ncccn3)cc2)ccc1O)N1CCCCC1 .
16

Write down measured zone of inhibition at 1000 µg/mL (Pseudomonas aeruginosa (RCMB 0100243)) for this compound. NS(=O)(=O)c1ccc(/N=N/c2ccc(O)c(C(=O)N3CCCCC3)c2)cc1
16

For Pseudomonas aeruginosa (RCMB 0100243), give zone of inhibition at 1000 µg/mL of the listed compound: CCCCNC(=O)c1cc(/N=N/c2ccc(S(=O)(=O)Nc3ncccn3)cc2)ccc1O
16

Report value: zone of inhibition at 1000 µg/mL, system: Pseudomonas aeruginosa (RCMB 0100243), compound: Cc1ccnc(NS(=O)(=O)c2ccc(/N=N/c3ccc(O)c(C(=O)N4CCOCC4)c3)cc2)n1
18

State, for Pseudomonas aeruginosa (RCMB 0100243), measured zone of inhibition at 1000 µg/mL of the compound listed here: NS(=O)(=O)c1ccc(/N=N/c2ccc(O)c(C(=O)NCc3ccccc3)c2)cc1
18

Jot down zone of inhibition at 1000 µg/mL (Pseudomonas aeruginosa (RCMB 0100243)) of CCCCNC(=O)c1cc(/N=N/c2ccc(S(=O)(=O)Nc3nccc(C)n3)cc2)ccc1O .
18

These data points were gathered from paper PMC9225712.
